tested on: ZIKV; experiment: Intracellular ZIKV RNA levels; assay type: cell-based, Zika virus; settings: read-out: IC50, intracellular ZIKV RNA levels
quantity.kind: pIC50
Reminder that pIC50 is minus the log10 of a molar concentration.

Problem: Give the measured pIC50 for CC(=O)Nc1ccc([C@H](C)C(=O)Nc2ncc(C(C)C)s2)cc1
Result: 5.76
